Where these numbers come from: ChEMBL document CHEMBL1201862

# Measured on: Fructose-bisphosphate aldolase (Mycobacterium tuberculosis)
# Sequence (P9WQA3 whole entry): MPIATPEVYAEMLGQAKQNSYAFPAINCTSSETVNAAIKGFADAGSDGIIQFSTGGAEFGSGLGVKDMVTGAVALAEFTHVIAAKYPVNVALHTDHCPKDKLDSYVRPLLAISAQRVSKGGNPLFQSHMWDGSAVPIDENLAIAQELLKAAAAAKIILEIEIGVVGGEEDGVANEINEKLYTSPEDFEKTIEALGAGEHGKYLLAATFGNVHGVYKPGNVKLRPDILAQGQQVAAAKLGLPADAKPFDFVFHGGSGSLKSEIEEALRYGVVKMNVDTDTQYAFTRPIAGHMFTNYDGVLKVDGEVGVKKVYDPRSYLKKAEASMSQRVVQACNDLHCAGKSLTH
# Assay remarks: Fluorescence-based biochemical high throughput dose response assay for inhibitors of the fructose-bisphosphate aldolase (FBA) of M. tuberculosis.
# Format: functional
The source made the active and inactive calls. No rule for the calls is given here.
Classes used: active, inactive

{"Query smiles": "CCn1nc2cc(C(=O)NCC34CC5CC(CC(C5)C3)C4)ccc2c1OC", "Label": "active"}
{"Query smiles": "N#Cc1cc(-c2cccc(Cl)c2)cnc1O", "Label": "active"}
{"Query smiles": "Oc1ccc(CN2CCCCC2)nc1-c1ccccc1", "Label": "active"}
{"Query smiles": "NC(=O)C1CCN(C(=O)CCNS(=O)(=O)c2ccccc2F)CC1", "Label": "inactive"}

---

We begin with a simple list: items and their reported IC50.
# Measured on: Induced myeloid leukemia cell differentiation protein Mcl-1 (Homo sapiens, UniProt Q07820)
# Sequence (Q07820 whole entry): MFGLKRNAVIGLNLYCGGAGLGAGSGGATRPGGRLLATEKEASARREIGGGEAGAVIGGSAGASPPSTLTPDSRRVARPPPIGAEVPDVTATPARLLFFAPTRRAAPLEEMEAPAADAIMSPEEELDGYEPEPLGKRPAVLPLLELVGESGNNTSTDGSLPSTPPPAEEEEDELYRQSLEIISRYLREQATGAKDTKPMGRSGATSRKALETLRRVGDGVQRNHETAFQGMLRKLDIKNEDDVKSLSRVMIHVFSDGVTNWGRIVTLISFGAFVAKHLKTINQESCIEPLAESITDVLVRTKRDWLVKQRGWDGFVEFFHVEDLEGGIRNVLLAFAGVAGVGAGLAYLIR
# Assay type: functional
The source made the active and inactive calls.

{"Molecule": "CC1=C(C#N)C(=O)N(C2CCS(=O)(=O)C2)C(=O)/C1=C\\c1ccc(C)o1 (stereo not given)", "Measured on": "Induced myeloid leukemia cell differentiation protein Mcl-1 (Homo sapiens, UniProt Q07820)", "IC50": "1.6 µM (active)"}
{"Molecule": "CCNC(=O)COC(=O)c1cc(-c2ccco2)nc2ccccc12", "Measured on": "Induced myeloid leukemia cell differentiation protein Mcl-1 (Homo sapiens, UniProt Q07820)", "IC50": "4.39 µM (active)"}
{"Molecule": "O=C(O)CCCCCN1C(=O)/C(=C\\c2cn(-c3ccccc3)nc2-c2cccs2)SC1=S", "Measured on": "Induced myeloid leukemia cell differentiation protein Mcl-1 (Homo sapiens, UniProt Q07820)", "IC50": "2.31 µM (active)"}
{"Molecule": "COc1ccc(NC(=S)NNc2ccc(S(=O)(=O)Nc3ccccc3C(=O)O)cc2[N+](=O)[O-])cc1", "Measured on": "Induced myeloid leukemia cell differentiation protein Mcl-1 (Homo sapiens, UniProt Q07820)", "IC50": "3.37 µM (not active)"}
{"Molecule": "O=C(O)c1cccc2c1NC(c1cccc([N+](=O)[O-])c1)C1CC(Sc3ccccc3[N+](=O)[O-])C(Cl)C21 (stereo not given)", "Measured on": "Induced myeloid leukemia cell differentiation protein Mcl-1 (Homo sapiens, UniProt Q07820)", "IC50": "3.05 µM (active)"}
{"Molecule": "COc1ccc2nc(-c3ccco3)c(-c3ccco3)nc2c1", "Measured on": "Induced myeloid leukemia cell differentiation protein Mcl-1 (Homo sapiens, UniProt Q07820)", "IC50": "3.09 µM (active)"}
{"Molecule": "O=C(/C=C\\c1ccco1)c1ccc(NC(=O)c2ccco2)cc1", "Measured on": "Induced myeloid leukemia cell differentiation protein Mcl-1 (Homo sapiens, UniProt Q07820)", "IC50": "2.78 µM (active)"}
{"Molecule": "O=C(O[C@@H]1OC2COC(=O)c3cc(O)c(O)c(O)c3-c3c(cc(O)c(O)c3O)C(=O)O[C@@H]([C@H]1O)[C@@H]2O)c1cc(O)c(O)c(O)c1", "Measured on": "Induced myeloid leukemia cell differentiation protein Mcl-1 (Homo sapiens, UniProt Q07820)", "IC50": "4.48 µM (active)"}
{"Molecule": "Nc1nc(O)c2c(n1)N=C1C(=C(O)c3ccccc31)C2c1cccc2ccccc12 (stereo not given)", "Measured on": "Induced myeloid leukemia cell differentiation protein Mcl-1 (Homo sapiens, UniProt Q07820)", "IC50": "3.73 µM (active)"}
{"Molecule": "COc1ccc(N2CCC(CNS(=O)(=O)c3cccc(C(F)(F)F)c3)C2)cc1 (stereo not given)", "Measured on": "Induced myeloid leukemia cell differentiation protein Mcl-1 (Homo sapiens, UniProt Q07820)", "IC50": "> 54 µM (active)"}
